- System: L-1210 leukemia
- assay_text: Anti-tumor action to L-1210 leukemia
- Format: in vivo, BDF1 female mice
- condition_label: Mus musculus, L1210; oral, 250 mg/kg/day × 3 (1st, 5th, 9th day); read-out: L-1210 ILS
I'd appreciate it if you could supply ILS at 250 mg/kg/day values for the items below.
Write it as a number; the unit % goes unstated.

Task: Look up ILS at 250 mg/kg/day with L-1210 leukemia for this compound: CC(C)(C)[Si](C)(C)CCCSCCNC(=O)n1cc(F)c(=O)[nH]c1=O
Output: 10

Task: Look up ILS at 250 mg/kg/day with L-1210 leukemia for this compound: C[Si](C)(C)CCSCCCNC(=O)n1cc(F)c(=O)[nH]c1=O
Output: 27

Task: Look up ILS at 250 mg/kg/day with L-1210 leukemia for this compound: C[Si](C)(C)CCCSCCCNC(=O)n1cc(F)c(=O)[nH]c1=O
Output: 49

Task: Look up ILS at 250 mg/kg/day with L-1210 leukemia for this compound: C[Si](C)(CCCSCCCNC(=O)n1cc(F)c(=O)[nH]c1=O)c1ccccc1
Output: 23

Task: Look up ILS at 250 mg/kg/day with L-1210 leukemia for this compound: C[Si](C)(C)CCCSCCNC(=O)n1cc(F)c(=O)[nH]c1=O
Output: 28

Task: Look up ILS at 250 mg/kg/day with L-1210 leukemia for this compound: C[Si](C)(CCSCCNC(=O)n1cc(F)c(=O)[nH]c1=O)c1ccccc1
Output: 38

Task: Look up ILS at 250 mg/kg/day with L-1210 leukemia for this compound: CC(C)[Si](C)(C)CCCSCCCNC(=O)n1cc(F)c(=O)[nH]c1=O
Output: 18

Task: Look up ILS at 250 mg/kg/day with L-1210 leukemia for this compound: C[Si](CCSCCNC(=O)n1cc(F)c(=O)[nH]c1=O)(c1ccccc1)c1ccccc1
Output: 11

Task: Look up ILS at 250 mg/kg/day with L-1210 leukemia for this compound: CCCCCCCC[Si](C)(C)CCSCCNC(=O)n1cc(F)c(=O)[nH]c1=O
Output: 12

----------
- Test system: L-1210 leukemia
- assay_text: Anti-tumor action to L-1210 leukemia
- Type: in vivo, BDF1 female mice
- condition_label: Mus musculus, L1210; oral, 250 mg/kg/day × 3 (1st, 5th, 9th day); read-out: L-1210 Judgement
observed_property: ILS at 250 mg/kg/day

Task: Param item = C[Si](C)(C)CCCSCCNC(=O)n1cc(F)c(=O)[nH]c1=O ; retrieve measured ILS at 250 mg/kg/day.
Output: 25 to 50%

Task: Param item = CC[Si](CC)(CC)CCSCCNC(=O)n1cc(F)c(=O)[nH]c1=O ; retrieve measured ILS at 250 mg/kg/day.
Output: < 25%

Task: Param item = C[Si](C)(CCCSCCCNC(=O)n1cc(F)c(=O)[nH]c1=O)c1ccccc1 ; retrieve measured ILS at 250 mg/kg/day.
Output: < 25%

Task: Param item = CC(C)[Si](C)(C)CCCSCCNC(=O)n1cc(F)c(=O)[nH]c1=O ; retrieve measured ILS at 250 mg/kg/day.
Output: < 25%

Task: Param item = CCCCCCCC[Si](C)(C)CCSCCNC(=O)n1cc(F)c(=O)[nH]c1=O ; retrieve measured ILS at 250 mg/kg/day.
Output: < 25%
